- SYSTEM_TESTED: Human recombinant Top1 (Homo sapiens, UniProt P11387)
- Construct: made in house
- Sequence (P11387 whole entry): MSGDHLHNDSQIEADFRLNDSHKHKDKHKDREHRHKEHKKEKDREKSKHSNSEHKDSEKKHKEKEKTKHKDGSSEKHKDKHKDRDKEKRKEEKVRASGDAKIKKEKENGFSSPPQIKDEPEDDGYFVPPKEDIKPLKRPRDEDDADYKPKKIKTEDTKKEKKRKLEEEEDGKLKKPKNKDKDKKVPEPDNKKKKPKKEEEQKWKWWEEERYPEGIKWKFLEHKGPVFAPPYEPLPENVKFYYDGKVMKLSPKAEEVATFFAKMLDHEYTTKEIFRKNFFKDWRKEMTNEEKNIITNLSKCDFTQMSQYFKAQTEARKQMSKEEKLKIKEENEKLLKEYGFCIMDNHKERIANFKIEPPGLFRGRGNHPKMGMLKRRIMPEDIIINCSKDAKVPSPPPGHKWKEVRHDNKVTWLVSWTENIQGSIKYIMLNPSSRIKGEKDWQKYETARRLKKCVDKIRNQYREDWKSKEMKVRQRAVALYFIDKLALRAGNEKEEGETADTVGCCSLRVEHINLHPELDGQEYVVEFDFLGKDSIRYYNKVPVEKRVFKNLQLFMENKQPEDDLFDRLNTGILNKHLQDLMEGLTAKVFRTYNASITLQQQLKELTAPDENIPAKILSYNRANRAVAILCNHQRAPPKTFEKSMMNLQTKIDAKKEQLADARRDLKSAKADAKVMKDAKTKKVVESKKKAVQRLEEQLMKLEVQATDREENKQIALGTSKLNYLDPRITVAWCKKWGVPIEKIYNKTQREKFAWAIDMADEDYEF
- ASSAY_OVERVIEW: Topoisomerase I-mediated DNA cleavage reactions
- Assay type: biochemical
- Design: key: +: weak activity; ++ and +++: moderate activity; ++ and +++: moderate activity; ++++: similar activity as 1 μM camptothecin
- ASSAY_SETUP: semiquantitative; tested at 0.1 μM, 1 μM, 10 μM, 100 μM; relative to 1 μM camptothecin
QUANTITY_MEASURED: activity of the compounds to produce Top1-mediated DNA cleavage

Look up and state reported activity of the compounds to produce Top1-mediated DNA cleavage for "COc1cc2c(=O)n(C)c3c4ccccc4nc(Cl)c3c2cc1OC"
+++

Look up and state reported activity of the compounds to produce Top1-mediated DNA cleavage for "C=CCn1c(=O)c2cc(OC)c(OC)cc2c2c(=O)[nH]c3ccccc3c21"
0

Look up and state reported activity of the compounds to produce Top1-mediated DNA cleavage for "COc1cc2c(=O)n(CCCn3ccnc3)c3c4ccccc4[nH]c(=O)c3c2cc1OC"
+

Look up and state reported activity of the compounds to produce Top1-mediated DNA cleavage for "COc1cc2c(=O)n(CCCN3CCOCC3)c3c4ccccc4nc(Cl)c3c2cc1OC"
++

# credit: patent US9073920B2
